Listing: inhibition of selected compounds
Molecular target: Nonstructural protein 3 (Zika virus)
Conditions: PRVABC59, Concentration 15.0 uM, Number of replicates 1.0
Description: Functional biochemical assay to identify treatments for viral infectious disease that targets Zika NS2B-NS3 protease. Utilizing a direct enzyme activity measurement method, reading the fluorescence intensity is used to characterize the relative potency of inhibitors as % inhibition.
Screen size: about 2,700 compounds; about 160 (5.9%) showed an effect of 50% or more. Only a selection was taken, and strong results are over-represented in it overall.

>  <Test smiles>
O=C(NCc1cccc(-c2ccccc2)c1)c1cc(Cl)ccc1NS(=O)(=O)c1ccc(Oc2ccccc2Cl)cc1

>  <inhibition [%]>
54.4

$$$$
>  <Test smiles>
CN(C(=O)c1cc(Cl)ccc1NS(=O)(=O)c1ccc(Oc2ccccc2Cl)cc1)[C@H]1CS(=O)(=O)C[C@@H]1O

>  <inhibition [%]>
1.21

$$$$
>  <Test smiles>
CCc1cc(Br)ccc1NC(=O)c1cc(Cl)ccc1NS(=O)(=O)c1ccc(Oc2ccccc2Cl)cc1

>  <inhibition [%]>
41.5

$$$$
>  <Test smiles>
O=C(NCc1noc(-c2ccco2)n1)c1cc(Cl)ccc1NS(=O)(=O)c1ccc(Oc2ccccc2Cl)cc1

>  <inhibition [%]>
48.1

$$$$
>  <Test smiles>
Cc1cc(Br)cc(NC(=O)c2cc(Cl)ccc2NS(=O)(=O)c2ccc(Oc3ccccc3Cl)cc2)c1

>  <inhibition [%]>
53.6

$$$$
>  <Test smiles>
O=C(Nc1ncc(F)cc1Br)c1cc(Cl)ccc1NS(=O)(=O)c1ccc(Oc2ccccc2Cl)cc1

>  <inhibition [%]>
23.4

$$$$
>  <Test smiles>
O=C(Nc1cccnc1Br)c1cc(Cl)ccc1NS(=O)(=O)c1ccc(Oc2ccccc2Cl)cc1

>  <inhibition [%]>
23

$$$$
>  <Test smiles>
O=C(Nc1ccc2c(c1)OC(F)(F)O2)c1cc(Cl)ccc1NS(=O)(=O)c1ccc(Oc2ccccc2Cl)cc1

>  <inhibition [%]>
50

$$$$
>  <Test smiles>
O=C(CNC(=O)c1cc(Cl)ccc1NS(=O)(=O)c1ccc(Oc2ccccc2Cl)cc1)c1ccc([N+](=O)[O-])cc1

>  <inhibition [%]>
33

$$$$
>  <Test smiles>
O=C(NCc1noc(-c2cccs2)n1)c1cc(Cl)ccc1NS(=O)(=O)c1ccc(Oc2ccccc2Cl)cc1

>  <inhibition [%]>
51.9

$$$$
>  <Test smiles>
O=C(Nc1ncc(Br)cc1O)c1cc(Cl)ccc1NS(=O)(=O)c1ccc(Oc2ccccc2Cl)cc1

>  <inhibition [%]>
55.3

$$$$
>  <Test smiles>
COc1ncc(NC(=O)c2cc(Cl)ccc2NS(=O)(=O)c2ccc(Oc3ccccc3Cl)cc2)cc1Br

>  <inhibition [%]>
67.3

$$$$
>  <Test smiles>
O=C(c1cc(Cl)ccc1NS(=O)(=O)c1ccc(Oc2ccccc2Cl)cc1)N1CCN(Cc2cc(F)ccc2F)CC1

>  <inhibition [%]>
17.7

$$$$
>  <Test smiles>
O=C(CNC(=O)c1cc(Cl)ccc1NS(=O)(=O)c1ccc(Oc2ccccc2Cl)cc1)c1ccccc1F

>  <inhibition [%]>
40.7

$$$$

----------
The compounds listed here are annotated with their inhibition.
Molecular target: Nonstructural protein 3 (Zika virus) (UniProt A0A024AXB9)
Sequence (A0A024AXB9 as listed by the source): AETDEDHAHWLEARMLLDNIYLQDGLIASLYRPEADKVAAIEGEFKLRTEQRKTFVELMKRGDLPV
Details: PRVABC59, Concentration 50.0 uM, Number of replicates 1.0
Screen size: about 2,700 compounds; about 160 (5.9%) showed an effect of 50% or more. The full list was thinned out, with strong results kept by preference.

>  <Test smiles>
CC1(C)[C@H]2CC[C@]1(C)[C@H](NC(=O)C1CCN(c3ccc(C=O)cc3)CC1)C2

>  <Unit info>
%

>  <inhibition>
-4.03

$$$$
>  <Test smiles>
O=Cc1ccc(N2CCC(C(=O)Nc3ccc(F)cc3Br)CC2)cc1

>  <Unit info>
%

>  <inhibition>
20.8

$$$$
>  <Test smiles>
CCN(CCOc1ccccc1C)C(=O)C1CCN(c2ccc(C=O)cc2)CC1

>  <Unit info>
%

>  <inhibition>
25.1

$$$$
>  <Test smiles>
N#Cc1ccc(Cl)c(NC(=O)C2CCN(c3ccc(C=O)cc3)CC2)c1

>  <Unit info>
%

>  <inhibition>
23.1

$$$$
>  <Test smiles>
O=Cc1ccc(N2CCC(C(=O)Nc3ccccc3I)CC2)cc1

>  <Unit info>
%

>  <inhibition>
24.9

$$$$
>  <Test smiles>
O=Cc1ccc(N2CCC(C(=O)NCCN3C(=O)CSC3=O)CC2)cc1

>  <Unit info>
%

>  <inhibition>
24.5

$$$$
>  <Test smiles>
O=Cc1ccc(N2CCC(C(=O)N3CCN(CCOCCO)CC3)CC2)cc1

>  <Unit info>
%

>  <inhibition>
21.2

$$$$
>  <Test smiles>
O=Cc1ccc(N2CCC(C(=O)N(Cc3cnn(-c4ccccc4)c3)C3CC3)CC2)cc1

>  <Unit info>
%

>  <inhibition>
26.1

$$$$
>  <Test smiles>
C[C@@H](c1ccccc1)N(Cc1ccncc1)C(=O)C1CCN(c2ccc(C=O)cc2)CC1

>  <Unit info>
%

>  <inhibition>
21.5

$$$$
>  <Test smiles>
O=Cc1ccc(N2CCC(C(=O)Nc3ccc(-n4cccn4)cc3)CC2)cc1

>  <Unit info>
%

>  <inhibition>
21.4

$$$$

Cited source: ChEMBL document CHEMBL5606458
